Record form. Attribute: MIC. Fill in for each entry.
Tested on: Serratia marcescens X99
Protocol Notes: MIC by standard agar dilution test
Type: cell-based
Test Conditions: X99, read-out: Minimum Inhibitory Concentration
Give your result in µg/mL as a bare value.

Please tell me: MIC of CN[C@@H]1[C@@H](O[C@H]2O[C@H](COS(C)(=O)=O)[C@@H](N)[C@H](O)[C@H]2O)O[C@H]2C[C@@H](N)[C@@H](O[C@H]3[C@H](O)[C@@H](O)[C@H](N)C[C@@H]3N)O[C@@H]2[C@@H]1O , system Serratia marcescens X99?
4

Then CN[C@@H]1[C@@H](O[C@H]2O[C@H](CCl)[C@@H](N)[C@H](O)[C@H]2O)O[C@H]2C[C@@H](N)[C@@H](O[C@H]3[C@H](O)[C@@H](O)[C@H](N)C[C@@H]3N)O[C@@H]2[C@@H]1O ?
4

Then CN[C@@H]1[C@@H](O[C@H]2O[C@H](CO[Si](C)(C)C(C)(C)C)[C@@H](N)[C@H](O)[C@H]2O)O[C@H]2C[C@@H](N)[C@@H](O[C@H]3[C@H](O)[C@@H](O)[C@H](N)C[C@@H]3N)O[C@@H]2[C@@H]1O ?
32

Then CN[C@@H]1[C@@H](O[C@H]2O[C@H](C)[C@@H](N)[C@H](O)[C@H]2O)O[C@H]2C[C@@H](N)[C@@H](O[C@H]3[C@H](O)[C@@H](O)[C@H](N)C[C@@H]3N)O[C@@H]2[C@@H]1O ?
2

----------
Test system: Pseudomonas aeruginosa Ps25
Protocol Notes: MIC by standard agar dilution test
Type: cell-based
Test Conditions: PS25, read-out: Minimum Inhibitory Concentration
Experimental Readout: MIC (µg/mL)
Give your result in µg/mL as a bare value.

Recorded MIC of CN[C@@H]1[C@@H](O[C@H]2O[C@H](CCl)[C@@H](N)[C@H](O)[C@H]2O)O[C@H]2C[C@@H](N)[C@@H](O[C@H]3[C@H](O)[C@@H](O)[C@H](N)C[C@@H]3N)O[C@@H]2[C@@H]1O [Test Compound 3, 6"-Chloro-6"-Deoxyapramycin] , please.
16

Then CN[C@@H]1[C@@H](O[C@H]2O[C@H](CO[Si](C)(C)C(C)(C)C)[C@@H](N)[C@H](O)[C@H]2O)O[C@H]2C[C@@H](N)[C@@H](O[C@H]3[C@H](O)[C@@H](O)[C@H](N)C[C@@H]3N)O[C@@H]2[C@@H]1O [Test Compound 6, 6"-O-(tert-Butyldimethylsilyl)Apramycin] ?
128

Then CN[C@@H]1[C@@H](O[C@H]2O[C@H](C)[C@@H](N)[C@H](O)[C@H]2O)O[C@H]2C[C@@H](N)[C@@H](O[C@H]3[C@H](O)[C@@H](O)[C@H](N)C[C@@H]3N)O[C@@H]2[C@@H]1O [Test Compound 4, 6"-Deoxyapramycin] ?
4

Then CN[C@@H]1[C@@H](O[C@H]2O[C@H](CN)[C@@H](N)[C@H](O)[C@H]2O)O[C@H]2C[C@@H](N)[C@@H](O[C@H]3[C@H](O)[C@@H](O)[C@H](N)C[C@@H]3N)O[C@@H]2[C@@H]1O [Test Compound 5, 6"-Amino-6"-Deoxyapramycin] ?
32

----------
Tested on: Erwinia amylovora
Experimental Readout: MIC (µg/mL)
Give your result in µg/mL as a bare value.

Recorded MIC of CN[C@@H]1[C@@H](O[C@H]2O[C@H](CN)[C@@H](N)[C@H](O)[C@H]2O)O[C@H]2C[C@@H](N)[C@@H](O[C@H]3[C@H](O)[C@@H](O)[C@H](N)C[C@@H]3N)O[C@@H]2[C@@H]1O , please.
4

Then CN[C@@H]1[C@@H](O[C@H]2O[C@H](CCl)[C@@H](N)[C@H](O)[C@H]2O)O[C@H]2C[C@@H](N)[C@@H](O[C@H]3[C@H](O)[C@@H](O)[C@H](N)C[C@@H]3N)O[C@@H]2[C@@H]1O ?
1

Then CN[C@@H]1[C@@H](O[C@H]2O[C@H](COS(=O)(=O)c3ccc(C)cc3)[C@@H](N)[C@H](O)[C@H]2O)O[C@H]2C[C@@H](N)[C@@H](O[C@H]3[C@H](O)[C@@H](O)[C@H](N)C[C@@H]3N)O[C@@H]2[C@@H]1O ?
2

Then CN[C@@H]1[C@@H](O[C@H]2O[C@H](C)[C@@H](N)[C@H](O)[C@H]2O)O[C@H]2C[C@@H](N)[C@@H](O[C@H]3[C@H](O)[C@@H](O)[C@H](N)C[C@@H]3N)O[C@@H]2[C@@H]1O ?
2

----------
Tested on: Pseudomonas solanacearum X185
Protocol Notes: microbe, parasite or virus in culture
Assay type: cell-based
Test Conditions: Ralstonia solanacearum, X185, read-out: Minimum Inhibitory Concentration
Record form. Attribute: MIC. Fill in for each entry.
Give your result in µg/mL as a bare value.

Recorded MIC of CN[C@@H]1[C@@H](O[C@H]2O[C@H](CN)[C@@H](N)[C@H](O)[C@H]2O)O[C@H]2C[C@@H](N)[C@@H](O[C@H]3[C@H](O)[C@@H](O)[C@H](N)C[C@@H]3N)O[C@@H]2[C@@H]1O , please.
4

Then CN[C@@H]1[C@@H](O[C@H]2O[C@H](CCl)[C@@H](N)[C@H](O)[C@H]2O)O[C@H]2C[C@@H](N)[C@@H](O[C@H]3[C@H](O)[C@@H](O)[C@H](N)C[C@@H]3N)O[C@@H]2[C@@H]1O ?
2

Then CN[C@@H]1[C@@H](O[C@H]2O[C@H](C)[C@@H](N)[C@H](O)[C@H]2O)O[C@H]2C[C@@H](N)[C@@H](O[C@H]3[C@H](O)[C@@H](O)[C@H](N)C[C@@H]3N)O[C@@H]2[C@@H]1O ?
4

Then CN[C@@H]1[C@@H](O[C@H]2O[C@H](COS(=O)(=O)c3ccc(C)cc3)[C@@H](N)[C@H](O)[C@H]2O)O[C@H]2C[C@@H](N)[C@@H](O[C@H]3[C@H](O)[C@@H](O)[C@H](N)C[C@@H]3N)O[C@@H]2[C@@H]1O ?
1

Then CN[C@@H]1[C@@H](O[C@H]2O[C@H](COS(C)(=O)=O)[C@@H](N)[C@H](O)[C@H]2O)O[C@H]2C[C@@H](N)[C@@H](O[C@H]3[C@H](O)[C@@H](O)[C@H](N)C[C@@H]3N)O[C@@H]2[C@@H]1O ?
1

----------
System: Salmonella typhosa SA12
Record form. Attribute: MIC. Fill in for each entry.
Give your result in µg/mL as a bare value.

Please tell me: MIC of CN[C@@H]1[C@@H](O[C@H]2O[C@H](CN)[C@@H](N)[C@H](O)[C@H]2O)O[C@H]2C[C@@H](N)[C@@H](O[C@H]3[C@H](O)[C@@H](O)[C@H](N)C[C@@H]3N)O[C@@H]2[C@@H]1O , system Salmonella typhosa SA12?
16

Then CN[C@@H]1[C@@H](O[C@H]2O[C@H](C)[C@@H](N)[C@H](O)[C@H]2O)O[C@H]2C[C@@H](N)[C@@H](O[C@H]3[C@H](O)[C@@H](O)[C@H](N)C[C@@H]3N)O[C@@H]2[C@@H]1O ?
4

Then CN[C@@H]1[C@@H](O[C@H]2O[C@H](COS(=O)(=O)c3ccc(C)cc3)[C@@H](N)[C@H](O)[C@H]2O)O[C@H]2C[C@@H](N)[C@@H](O[C@H]3[C@H](O)[C@@H](O)[C@H](N)C[C@@H]3N)O[C@@H]2[C@@H]1O ?
1

Then CN[C@@H]1[C@@H](O[C@H]2O[C@H](COS(C)(=O)=O)[C@@H](N)[C@H](O)[C@H]2O)O[C@H]2C[C@@H](N)[C@@H](O[C@H]3[C@H](O)[C@@H](O)[C@H](N)C[C@@H]3N)O[C@@H]2[C@@H]1O ?
4

Then CN[C@@H]1[C@@H](O[C@H]2O[C@H](CCl)[C@@H](N)[C@H](O)[C@H]2O)O[C@H]2C[C@@H](N)[C@@H](O[C@H]3[C@H](O)[C@@H](O)[C@H](N)C[C@@H]3N)O[C@@H]2[C@@H]1O ?
2

----------
Record form. Attribute: MIC. Fill in for each entry.
System: Pseudomonas aeruginosa X528
Protocol Notes: MIC by standard agar dilution test
Format: cell-based
Test Conditions: X528, read-out: Minimum Inhibitory Concentration
Give your result in µg/mL as a bare value.

Recorded MIC of CN[C@@H]1[C@@H](O[C@H]2O[C@H](CO[Si](C)(C)C(C)(C)C)[C@@H](N)[C@H](O)[C@H]2O)O[C@H]2C[C@@H](N)[C@@H](O[C@H]3[C@H](O)[C@@H](O)[C@H](N)C[C@@H]3N)O[C@@H]2[C@@H]1O , please.
64

Then CN[C@@H]1[C@@H](O[C@H]2O[C@H](CN)[C@@H](N)[C@H](O)[C@H]2O)O[C@H]2C[C@@H](N)[C@@H](O[C@H]3[C@H](O)[C@@H](O)[C@H](N)C[C@@H]3N)O[C@@H]2[C@@H]1O ?
64

Then CN[C@@H]1[C@@H](O[C@H]2O[C@H](C)[C@@H](N)[C@H](O)[C@H]2O)O[C@H]2C[C@@H](N)[C@@H](O[C@H]3[C@H](O)[C@@H](O)[C@H](N)C[C@@H]3N)O[C@@H]2[C@@H]1O ?
16
